# assay-summary: probe aNog binding to arrayed compounds – biochemical, biotinylated probe, 635/667 nm fluorescence, primary screen (AID 1115);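 also: probe is biotinylated aNog protein used at 0.15 µg/mL for 1 h at 4 C; z-score combines 667 nm fluorescence of each spot with its signal to noise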
# condition-set: small-molecule microarray, higher = more signal
Collected composite z-score values appear next to each entry.
Respond numerically, and do not add a unit to the figure.

# molecule, result-value
rows = [
    ("C=CC[C@]1(C(=O)NCC(O)CO)COC(c2ccc(OCCCO)cc2)=N1 (some centres undefined)", -0.21),
]

Sure, the documented composite z-score for CC(=O)c1ccc(C(O)C2C=CC3C(=O)N(c4ccccc4)C(=O)C3N2Nc2ccc(C(C)C)cc2)cc1 (centres undefined) is 1.7

Sure, the documented composite z-score for C=CCC(OC(C)=O)[C@@H]1[C@@H](N(Cc2cccc3ccccc23)C(=O)c2ccc(-c3ccccc3)cc2)c2cc(OCCCO)ccc2N1C(=O)Cc1ccc2ccccc2c1 (some centres undefined) is -0.0773

Sure, the documented composite z-score for C=CC1c2cc(O)c(OC)cc2CCN1C (centres undefined) is -0.348

Sure, the documented composite z-score for "COC(=O)[C@@]1(Cc2ccccc2)[C@H]2c3cc(C(=O)N(C)C)n(CCSC(=N)N)c3C[C@H]2CN1C(=O)c1ccccc1" is 1.39

Sure, the documented composite z-score for C=C(C)[C@@H]1CC=C(C(O)C2C=CC3C(=O)N(C)C(=O)C3N2Nc2ccc([N+](=O)[O-])cc2[N+](=O)[O-])CC1 (some centres undefined) is 1.46

Sure, the documented composite z-score for CC(C)(C)N1CC=CC23O[C@@H]4C=CCOC(=O)[C@@H]4[C@H]2C(=O)N(CCO)[C@@H]3C1=O (some centres undefined) is -0.364

Sure, the documented composite z-score for "C=C(CCCC)/C(=C/C[C@H](OC(C)=O)c1cccc(OCCO)c1)c1cnc2ccccc2c1" is 0.0664

Sure, the documented composite z-score for COc1ccc(C(O)C2C=CC3C(=O)NC(=O)C3N2Nc2ccc(Cl)cc2Cl)c2ccccc12 (centres undefined) is -1.02

Sure, the documented composite z-score for "CN1C(=O)[C@@H]2[C@@H](CC(COc3ccccc3)=C3[C@@H](CCc4ccccc4)OB(O)C[C@@H]32)C1=O" is -0.0172

Sure, the documented composite z-score for "O=C(NCc1ccccc1)[C@@H]1c2ccccc2C(=O)N(Cc2cc(C(F)(F)F)cc(C(F)(F)F)c2)[C@H]1c1ccc(CO)cc1" is -0.213

Sure, the documented composite z-score for CC(C)=CCCC=C(C)C(O)C1C=CC2C(=O)N(c3ccccc3)C(=O)C2N1Nc1ccc(C#N)cc1 (centres undefined) is -0.468

Sure, the documented composite z-score for "CN(C)CCCNC(=O)[C@@]1(C)c2ccccc2C(=O)N(Cc2ccc(OC(F)(F)F)cc2)[C@H]1c1ccc(CO)cc1" is 0.738

Sure, the documented composite z-score for "CC(C)C(=C=CC[C@H](O)c1ccccc1OCCO)C[C@H](O)c1cc(Cl)cc(Cl)c1O" is 0.158

Sure, the documented composite z-score for N#Cc1ccc(NN2C(C(O)C3CC=CCC3)C=CC3C(=O)N(c4ccccc4)C(=O)C32)cc1 (centres undefined) is 0.313

Sure, the documented composite z-score for "CCOC(=O)c1cn(C[C@H](Cc2ccccc2)NC(=O)N[C@H](CO)CCc2oc(C(C)=O)c(C(=O)OC)c2C(=O)OC)nn1" is -0.158

Sure, the documented composite z-score for C=CCC(OC(C)=O)[C@@H]1[C@@H](N(Cc2cccc3ccccc23)C(=O)Cc2ccc(OC)cc2)c2cc(OCCCO)ccc2N1C(=O)c1ccc2ccccc2c1 (some centres undefined) is -0.23

Sure, the documented composite z-score for "CCCC=C(CCC)[C@@H](NC(=O)OCC(C)C)c1ccc(C(=O)OC)cc1" is -0.0496

Sure, the documented composite z-score for CC(C)C[C@@H]1NC(=O)[C@@]23C(=O)N[C@@H](Cc4ccccc4)C2[C@H](C)[C@@]2(C)O[C@H]2C3/C=C/C/C=C\CNC(=O)CNC1=O (some centres undefined) is -0.125
